- experiment: NCI Yeast Anticancer Drug Screen. Data for the rad50 strain (AID 155);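 further: 0% = growth of vehicle-only cultures of the same strain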
- measurementSetup: S. cerevisiae rad50 strain growth inhibition; at 50.0 µM
Compounds without any hit were thinned out: in the full panel of roughly 79,000, 15% have a hit. Active and inactive are the calls of the source. No stated cut-off is given here; in the data, active means growth inhibition above about 70%; inactive means the rest.
Give one outcome, nothing more. List: active, inactive

Answered examples (8):
INSERT INTO assay_data (compound, classname) VALUES
  ('Cc1ccc(/C=c2\cc3oc(=O)c4cccc(c4-3)c2=O)cc1', 'inactive'),
  ('C=CCn1c(SC)nc2c(c1=O)CCCC2', 'inactive'),
  ('CCCCCCCCCCN(CCCCCCCCCC)CC(O)c1cc(-c2ccc(Cl)cc2)nc2ccccc12 (stereo unspecified)', 'inactive'),
  ('CCOC(CN=CC1CCC=CO1)OCC (stereo unspecified)', 'inactive'),
  ('COc1ccc(C(C#N)NNC(=O)c2ccccc2O)cc1OC (stereo unspecified)', 'inactive'),
  ('CC/C(=N/NC(N)=O)C1C=COC=C1', 'inactive'),
  ('c1cc2c3c(c1)CCC3CCC2 (stereo unspecified)', 'inactive'),
  ('CCOC(=O)Nc1cc2c(c(N)n1)N=C(c1ccc(Cl)cc1Cl)CN2', 'inactive');

Ask: Hi team, can someone confirm the assay call for "CCCCCc1cc(C(=O)NN)c2ccccc2n1" ?
Reply: inactive

Ask: Hi team, can someone confirm the assay call for CCOC(=O)C1CSC(N)=N1 (stereo unspecified) ?
Reply: inactive

Ask: Hi team, can someone confirm the assay call for "CC(C)=NNC(=O)c1n[nH]c(C)c1N=NN(C)C" ?
Reply: inactive

Ask: Hi team, can someone confirm the assay call for O=[N+]([O-])c1ccccc1S(=O)NCc1c(Cl)cccc1Cl (stereo unspecified) ?
Reply: inactive

Ask: Hi team, can someone confirm the assay call for OC(CC1CCCCN1)c1ccc2c(c1)oc1ccccc12 (stereo unspecified) ?
Reply: active

###

# Lookup of reported growth inhibition keyed by entry
- experiment: NCI Yeast Anticancer Drug Screen. Data for the bub3 strain (AID 167)
- measurementSetup: S. cerevisiae bub3 mutant strain, at 50.0 µM, stronger effect = higher value
The panel holds about 79,000 compounds, 15% with a hit somewhere; the sample as a whole holds those more often.
Field: numeric (%). Do not append units.

Consider the following illustrative entries.
INSERT INTO assay_data (compound, measurementunit, testvalue) VALUES
  ('Cc1cc(Cl)ccc1N=C1NC(=O)C(CC(=O)Nc2ccc(Cl)cc2Cl)S1 (stereo unspecified)', '%', -4.3),
  ('CC12CS(=O)(=O)CC1O2 (stereo unspecified)', '%', 2.2),
  ('c1ccc(C(N2CCNCC2)N2CCNCC2)cc1', '%', -9.3),
  ('CCOc1ncc(C[n+]2csc(CCO)c2C)c(N)n1', '%', -19.9),
  ('O=C(O)C1=C/C(=C\C=[N+]2c3cc(O)c(OC4OC(CO)C(O)C(O)C4O)cc3CC2C(=O)[O-])CC(C(=O)O)N1 (stereo unspecified)', '%', 5.8);

Please turn your attention to the following entry.
Ask: # growth inhibition lookup, item "O=C1C(=O)c2ccc3c(c2-c2cc4c(cc21)OCO4)OCO3"
Reply: -27.5

###

- experiment: NCI Yeast Anticancer Drug Screen. Data for the sgs1 mgt1 strain (AID 161);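 further: 0% = growth of cultures given vehicle only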
- measurementSetup: S. cerevisiae sgs1 mgt1 strain, at 50.0 µM, stronger effect = higher value
About 79,000 compounds went through this panel and 15% of them were active in at least one assay; those are over-represented in the sample as a whole. Where a SMILES comes first, the peptide text is derived from it. [ ]: non-standard residue; d: D form. The star is where a group is joined. Cbz = O=C(OCc1ccccc1)*; Dha = C=C(N)C(=O)O
assayMetric: growth inhibition (%)
Field: numeric (%). Do not append units.

Consider the following illustrative entries.
INSERT INTO assay_data (compound, testvalue) VALUES
  ('CCC(CC)(C1CCC(=O)CC1)C1CCC(=O)CC1', -1.05),
  ('OC1Cn2cc(Br)c[n+]2C1 (stereo not given)', -21.5),
  ('Nc1cc2c(cc1/C=C1\CCNC1=O)OCO2', -22.2),
  ('O=C(Cc1cccc2ccccc12)NO', 6.7),
  ('C=C(NC(=O)C(C)NC(=O)OCc1ccccc1)C(=O)N1CCCC1C(=O)NC(C)C(=O)NC (stereo not given) (Cbz-A[Dha]PA-NHMe; configuration not given here)', -5.05);

Ask: # growth inhibition lookup, item CCOC(=O)C(C)C1CCCc2c(C)ccc(C)c21 (stereo not given)
Reply: 1.25

Ask: # growth inhibition lookup, item COc1ccc2c(c1)CCC1C2CCC2(C)C(=O)C(n3cnc4c(SC)ncnc43)CC12 (stereo not given)
Reply: 58.4

Ask: # growth inhibition lookup, item "C1=NCCCCCCCN=Cc2ccccc2NCCNc2ccccc21"
Reply: 20.4

Ask: # growth inhibition lookup, item "CC1(C)N=C(C(N)=O)c2ncn(CCCO)c2N1"
Reply: -48.4

Ask: # growth inhibition lookup, item "COc1ccc(CCNC(=O)c2cccc(Cl)c2)cc1OC"
Reply: -23.1

###

- experiment: NCI Yeast Anticancer Drug Screen. Data for the rad50 strain (AID 155);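 further: 0% = growth of vehicle-only cultures of the same strain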
- measurementSetup: S. cerevisiae rad50 strain growth inhibition; at 50.0 µM; stronger effect = higher value
The panel holds about 79,000 compounds, 15% with a hit somewhere; the sample as a whole holds those more often.
# Lookup of reported growth inhibition keyed by entry
Field: numeric (%). Do not append units.

INSERT INTO results (compound, measurementunit, testvalue) VALUES
  ('C=C1C(=O)OC2/C=C(\C)C(OC(C)=O)C3OC3C(C)(O)CC(OC(=O)/C(C)=C/C)C12 (centres undefined)', '%', 3.35);

Ask: # growth inhibition lookup, item "COc1ccc2c(c1)c(=O)c1c(NCCCN(C)C)ccc3ncn2c31"
Reply: 34.6

Ask: # growth inhibition lookup, item "O=C(O)c1ccc(Nc2nc3ccccc3nc2-c2cccs2)cc1"
Reply: 2.9

Ask: # growth inhibition lookup, item "Nc1nc(SCCc2ccccc2)c2[nH]cnc2n1"
Reply: -2.35

Ask: # growth inhibition lookup, item "CCc1c(Sc2ccccn2)n(COCc2ccccc2)c(=O)[nH]c1=O"
Reply: -14.5

Ask: # growth inhibition lookup, item "CCOC(=O)c1cn2ccccc2c1C(=O)OCC"
Reply: 3.5

Ask: # growth inhibition lookup, item "CCCCNC(=O)c1cc2c(cc1Cl)Sc1nccn1S2(=O)=O"
Reply: -1.1

Ask: # growth inhibition lookup, item "CN=C(N)SCCSC(N)=NC"
Reply: -12.3

Ask: # growth inhibition lookup, item "CCOC(=O)c1ccc(N=C2C(=S)N(c3ccc(C(=O)OCC)cc3)C(=N)N2/N=C/c2ccccc2)cc1"
Reply: 19.4

Ask: # growth inhibition lookup, item "CCOC(=O)c1cc(=O)c2cccc(C)c2[nH]1"
Reply: 2.3

Ask: # growth inhibition lookup, item "O=C(C[n+]1ccncc1)c1ccc2c(c1)CCCC2"
Reply: -8.7

Ask: # growth inhibition lookup, item Cc1cc(C)c(NS(=O)c2cccc(C(F)(F)F)c2)c(C)c1 (centres undefined)
Reply: -47.1

Ask: # growth inhibition lookup, item "Cc1ccc(/C=C/C(=O)/C=C/c2ccc(C)cc2)cc1"
Reply: 9.05

Ask: # growth inhibition lookup, item "CCCCN(CCCC)CCCNC(=S)Nc1ccccc1"
Reply: -3.25

###

# Lookup of reported growth inhibition keyed by entry
- experiment: NCI Yeast Anticancer Drug Screen. Data for the bub3 strain (AID 167)
- measurementSetup: S. cerevisiae bub3 mutant strain, at 50.0 µM, stronger effect = higher value
Compounds without any hit were thinned out: in the full panel of roughly 79,000, 15% have a hit.
Field: numeric (%). Do not append units.

INSERT INTO assay_data (compound, testvalue) VALUES
  ('O=C(Nc1c(Cl)c(Cl)c2c(c1Cl)Cc1cc(Cl)ccc1-2)C(Cl)Cl', 3.85);

Please turn your attention to the following entry.
Ask: # growth inhibition lookup, item "Cc1ccc(S(=O)(=O)/C(C#N)=C\N2CCNC2=S)cc1"
Reply: 4.4

###

- experiment: NCI Yeast Anticancer Drug Screen. Data for the bub3 strain (AID 167)
- measurementSetup: S. cerevisiae bub3 mutant strain, at 50.0 µM, stronger effect = higher value
The panel holds about 79,000 compounds, 15% with a hit somewhere; the sample as a whole holds those more often. Calls of active or inactive are those of the source. No stated cut-off is given here; in the data, active means growth inhibition above about 70%; inactive means the rest.
assayMetric: growth inhibition

INSERT INTO measurements (molecule, testvalue) VALUES
  ('NC(N)=NC(=O)c1ccc(N)cc1', '-3.4% (inactive)'),
  ('CC(=O)NC1C(OCc2ccccc2)OC(CO)C(O)C1OCC(=O)N1CCCC1C(=O)NC(CCC(=O)NCCCCCNc1c2ccccc2nc2cccc([N+](=O)[O-])c12)C(N)=O (stereo not given)', '0.55% (inactive)'),
  ('COc1ccc2c(c1)CCCN2C(=N)c1ccc([N+](=O)[O-])cc1', '22.6% (inactive)'),
  ('COc1cc(C(=O)N=Nc2c(O)[nH]c3ccc(Br)cc23)cc(OC)c1OC', '2% (inactive)');

Please turn your attention to the following entry.
Ask: # growth inhibition lookup, item "O=S(=O)(c1ccc(Br)cc1)S(=O)(=O)c1ccc(Br)cc1"
Reply: 23.2% (inactive)
